Each record here notes measured Signal (FLU).
- Target Under Test: T1, human DR3 (TNFRSF25) expressed on cells (human, UniProt Q93038 25-417)
- T1 sequence: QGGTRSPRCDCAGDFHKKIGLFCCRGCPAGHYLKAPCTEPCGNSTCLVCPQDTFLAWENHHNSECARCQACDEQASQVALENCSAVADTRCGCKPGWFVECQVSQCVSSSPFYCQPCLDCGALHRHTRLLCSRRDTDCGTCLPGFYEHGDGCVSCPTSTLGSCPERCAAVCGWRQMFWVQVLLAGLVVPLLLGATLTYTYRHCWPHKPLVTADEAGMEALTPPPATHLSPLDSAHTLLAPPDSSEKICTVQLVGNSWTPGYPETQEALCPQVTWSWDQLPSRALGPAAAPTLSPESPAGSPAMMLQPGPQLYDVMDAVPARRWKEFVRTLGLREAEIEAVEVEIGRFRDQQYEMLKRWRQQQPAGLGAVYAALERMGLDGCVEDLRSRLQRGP
- Assay Info: cell-based or functional assay
Hi! Could you send only the number? It should be in FLU, unit omitted.

>>> numeric_readout("VHg1/VLg5 (antibody, human IgG1, V domains shown) VH: QVQLVQSGGGLVQPGGSLRLSCAASGFTFSSYAMSWVRQAPGKGLEWVSTISDGDSYSYFPDSVKDRFTISRDNSKNTLYLQMNSLRAEDTSVYYCARDRIYGSVQYYAMDYWGQGTLVTVSS VL: EIVLTQSPGTLSLSPGERGTLSCRASESVEFSGTSLMQWYQQKPGQAPRLLIYAASNVESGIPDRFSGSGSETDFTLTISRLEPEDLAVYYCQQSRKLPYTFGQGTRLEIK")
"1.99e+06"

Proceed to the following item.
Query: Reported Signal (FLU), binder VHg5/VLg13 (antibody, human IgG1, V domains shown, human IgG1) VH: QVQLQQSGGGLVQAGGSLRLSCAASGFTFTSYAMSWVRQAPGKGLEWVATISDGDSYSYFPDSVKDRFIISRDNAKNSLFLQMNSLRAEDTAVYYCARDRIYGSVQYYAMDYWGRGTLVTVSS VL: DIQMTQSPSSLSASVGDRVTITCRASESVEFSGTSLMQWYQQKPGKAPKLLIYAASNVESGVPSRFSGSGSGTDFTFTISSLQPEDIATYYCQQSRKLPYTFGQGTKLEIK : ____
Reply: 2.7e+06
